Assay: Body burden measurement (GC-MS/MS) and concentration uptake ratio, vial exposure
Assay type: in vivo, Danio rerio
Conditions: zebrafish (Danio rerio), whole embryos (32 pooled, ethyl acetate extract), other: waterborne exposure of embryos in sealed vials, 20 μM exposure, 24 hpf, 32 pooled embryos, 0.5 mL extract, single replicates; read-out: measured concentration in embryo extract
Please use True for concentration at 24 hpf, 20 μM under 10000 ng/mL and False for everything else, ties included.

>>> answer_label("Cc1ccc2ccc(C)cc2c1 [2,7-dimethylnaphthalene]")
"False"

Ask | Item Cc1cccc2c(C)cccc12 [1,5-dimethylnaphthalene] : concentration at 24 hpf, 20 μM beneath 10000 ng/mL, strictly?
Reply | False

Ask | Item Cc1cc(C)c2c(C)cccc2c1 [2,4,5-trimethylnaphthalene] : concentration at 24 hpf, 20 μM beneath 10000 ng/mL, strictly?
Reply | True

Ask | Item Cc1ccc2cccc(C)c2c1 [1,7-dimethylnaphthalene] : concentration at 24 hpf, 20 μM beneath 10000 ng/mL, strictly?
Reply | False

Ask | Item c1ccc2ccccc2c1 [naphthalene] : concentration at 24 hpf, 20 μM beneath 10000 ng/mL, strictly?
Reply | True

Origin of measurements: paper PMC12560828
